measuredMetric: Ki

Task item: Record c1cnc2c(c1)O[C@H]1CCN3CC[C@@]1(C2)C3 : what is its Ki with Acetylcholine receptor subunit alpha (Homo sapiens, UniProt P02708)?
Reply: 6 µM

---

# targetOrTestSystem: Neuronal acetylcholine receptor subunit alpha-4 (Homo sapiens, UniProt P43681)
# Sequence (P43681 whole entry): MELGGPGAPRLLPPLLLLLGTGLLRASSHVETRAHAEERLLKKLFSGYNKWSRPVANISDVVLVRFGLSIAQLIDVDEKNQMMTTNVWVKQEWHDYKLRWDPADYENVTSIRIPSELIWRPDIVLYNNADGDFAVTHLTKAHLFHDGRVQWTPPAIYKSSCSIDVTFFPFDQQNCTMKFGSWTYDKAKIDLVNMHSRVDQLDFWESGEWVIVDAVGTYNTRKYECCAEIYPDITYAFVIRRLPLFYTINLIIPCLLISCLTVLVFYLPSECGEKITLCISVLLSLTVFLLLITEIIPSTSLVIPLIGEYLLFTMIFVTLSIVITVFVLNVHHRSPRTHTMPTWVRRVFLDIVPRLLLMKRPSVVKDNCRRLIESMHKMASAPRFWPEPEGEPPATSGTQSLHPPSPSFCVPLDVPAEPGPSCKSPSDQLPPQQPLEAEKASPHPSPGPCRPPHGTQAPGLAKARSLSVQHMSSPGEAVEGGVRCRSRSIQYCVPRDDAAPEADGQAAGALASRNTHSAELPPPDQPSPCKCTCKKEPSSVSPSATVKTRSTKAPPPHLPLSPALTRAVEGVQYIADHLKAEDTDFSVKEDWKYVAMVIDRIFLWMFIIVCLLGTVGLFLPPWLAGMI
measuredMetric: Ki (nM)
The reply should be a number in nM, with the unit left off.

Task item: Identify the measured Ki of c1cnc2c(c1)O[C@H]1CCN3CC[C@@]1(C2)C3 for Neuronal acetylcholine receptor subunit alpha-4 (Homo sapiens, UniProt P43681).
Reply: 36

Data credit: BindingDB's records for doi:10.1124/jpet.103.049262
